Molecular target: Coagulation factor X (Homo sapiens, UniProt P00742)
Sequence (P00742 41-179 limits assumed): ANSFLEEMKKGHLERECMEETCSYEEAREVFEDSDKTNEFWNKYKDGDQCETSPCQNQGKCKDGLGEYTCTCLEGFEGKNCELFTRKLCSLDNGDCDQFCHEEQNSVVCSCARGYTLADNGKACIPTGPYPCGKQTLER
Sequence (P00742 235-488 limits assumed): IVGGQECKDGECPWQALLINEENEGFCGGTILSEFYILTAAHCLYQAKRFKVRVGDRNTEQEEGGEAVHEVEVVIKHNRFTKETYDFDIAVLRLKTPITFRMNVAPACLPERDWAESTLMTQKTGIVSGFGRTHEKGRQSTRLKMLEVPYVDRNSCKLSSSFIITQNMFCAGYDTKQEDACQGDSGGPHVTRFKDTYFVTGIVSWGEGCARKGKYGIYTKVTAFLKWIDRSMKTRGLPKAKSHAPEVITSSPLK
Experiment: The compound was tested in vitro for inhibitory activity against Coagulation factor X
pIC50: −log10 of the molar value.
Catalogue of pIC50 values

[[record]]
compound = "N=C(N)N1CCC[C@H](NC(=O)CN2CCC(NS(=O)(=O)Cc3ccccc3)C2=O)C1O (some centres undefined)"
target_or_system = "Coagulation factor X (Homo sapiens, UniProt P00742)"
recorded_value = "< 5.60"

[[record]]
compound = "N=C(N)N1CCC[C@H](NC(=O)CN2CCCC[C@@](N)(Cc3ccccc3)C2=O)C1O (some centres undefined)"
target_or_system = "Coagulation factor X (Homo sapiens, UniProt P00742)"
recorded_value = "< 5.60"

[[record]]
compound = "N=C(N)N1CCC[C@H](NC(=O)CN2CCC[C@H](NS(=O)(=O)Cc3ccccc3)C2=O)C1O (some centres undefined)"
target_or_system = "Coagulation factor X (Homo sapiens, UniProt P00742)"
recorded_value = "< 5.60"


Switching to the query record.
Query: Report pIC50 for CS(=O)(=O)NC1(Cc2ccccc2)CCCN(CC(=O)N[C@H]2CCCN(C(=N)N)C2O)C1=O (some centres undefined) please.
Reply: < 5.60

Value source: ChEMBL document CHEMBL1153655
